Tested on: HCC-2998 colon
Assay name: NCI-60 one-dose screen, 48 h (100 = growth as untreated, 0 = no growth, -100 = all killed)
Measurement setup: 10 µM
Compounds without any hit were thinned out: in the full panel of roughly 83,000, 20% have a hit.
Cut-off 90% on growth, inclusive. At or above means T; below means F.

Example entries begin here.
{"columns": ["Compound", "Class label"],
 "data": [
  ["C#Cc1ccc(-n2c(/C=C/c3ccc(O)cc3)nc3ncccc3c2=O)cc1", "T"],
  ["CCOC(=O)C(CSC(c1ccccc1)(c1ccccc1)c1ccccc1)NC(=O)C(CSC(c1ccccc1)(c1ccccc1)c1ccccc1)NC(c1ccccc1)(c1ccccc1)c1ccccc1 (stereo unspecified)", "T"],
  ["COc1ccc(/C=C/C(=O)Nc2ccc(-c3nc4ccc(OC)cc4s3)cc2)cc1", "T"],
  ["CCCC1(CC(=O)O)OCCc2c1[nH]c1ccccc21 (stereo unspecified)", "F"],
  ["CC/C(=N\\N=C(/CC)c1ccc(Br)cc1)c1ccc(Br)cc1", "T"],
  ["CC(=O)c1nc2ccccc2n1CCN1CCN(C)CC1", "F"],
  ["C[C@]12CC[C@@H]3c4ccc(O)cc4C[C@@H](O)[C@H]3[C@@H]1CC[C@@H]2O", "T"],
  ["CN(C)CCS(=O)(=O)CCN(C)C", "T"],
  ["CCC(=O)N1C/C(=C/c2ccc(OC)cc2)C(=O)/C(=C/c2ccc(OC)cc2)C1", "F"],
  ["COc1ccc(-c2nsc3c2NC(=O)CC3c2ccc(F)cc2)cc1 (stereo unspecified)", "F"]
]}

Task: Threshold query (growth >= 90%) on C#Cc1ccc(-n2c(/C=C/c3cc(OC)cc(OC)c3)nc3ncccc3c2=O)cc1
Output: T

* * *

System: NCI-H460 lung
Assay name: NCI-60 one-dose screen, 48 h (100 = growth as untreated, 0 = no growth, -100 = all killed)
Measurement setup: 10 µM
The panel holds about 83,000 compounds, 20% with a hit somewhere; the sample as a whole holds those more often.
Binarize growth at 80%; below is met, at or above is not met.

Example entries begin here.
{"columns": ["Compound", "Class label"],
 "data": [
  ["Nc1c(C(=O)Nc2ccccc2Cl)sc2nc3c(cc12)C(=O)CCC3", "met"],
  ["O=S(=O)(NCCCNc1nccc(-c2c(-c3ccc(F)cc3)nc3sccn23)n1)c1ccc(F)cc1", "met"],
  ["COc1ccc(NC(=O)CSc2nc3ccccc3c(=O)n2CCc2ccccc2)cc1", "met"]
]}

Task: is_below(growth, 80%) for COc1ccc(-c2nn(-c3cccc(NC(=O)Nc4ccccc4)c3)cc2-c2ccncc2)cc1Cl ?
Output: met

Task: Thanks! And C#Cc1ccc(-n2c(/C=C/c3ccc(O)cc3)nc3ncccc3c2=O)cc1 ?
Output: not met

Task: Thanks! And CC(=O)C1CCC2C3CC(F)C4=CC(=O)CCC4(C)C3C(O)CC12C (stereo not given) ?
Output: not met

Task: Thanks! And COc1ccc(/C=C2/CN(CCC#N)C/C(=C\c3ccc(OC)cc3)C2=O)cc1 ?
Output: met

Task: Thanks! And NC(=O)c1ccc(-c2cccc3c(=O)nc(N4CCOCC4)oc23)cc1 ?
Output: not met

Task: Thanks! And c1ccc([C@H]2CN3CCSC3=N2)cc1 ?
Output: not met

Task: Thanks! And Cc1cccc(Cl)c1NC(=O)c1ccc2nc(NC(=O)NC3CCN(C)CC3)sc2c1 ?
Output: not met
